- Tested on: SH-SY5Y cells
- Protocol notes: Cell viability by flow cytometry FSC/SSC live/dead gating
- Format: cell-based
- Conditions: 90 min exposure at the concentrations used (10 µM cytochalasin A, 25 µg/ml cytochalasin D, 10 µM IPA-3, 25 nM wortmannin, 5 µg/ml CPZ, 80 µM dynasore), FSC/SSC gating
Quantity kind: fraction of inhibitor-treated cells in the live gate

Compound	Result
C=C1[C@@H](C)[C@H]2[C@H](Cc3ccccc3)NC(=O)[C@]23[C@H](OC(C)=O)/C=C/[C@@](C)(O)C(=O)[C@@H](C)C/C=C/[C@H]3[C@@H]1O [cytochalasin D]	> 85%
C=C1[C@@H](C)[C@H]2[C@H](Cc3ccccc3)NC(=O)[C@]23OC(=O)/C=C/C(=O)CCC[C@@H](C)C/C=C/[C@H]3[C@@H]1O [cytochalasin A]	> 85%
COC[C@H]1OC(=O)c2coc3c2[C@@]1(C)C1=C(C3=O)[C@@H]2CCC(=O)[C@@]2(C)C[C@H]1OC(C)=O [wortmannin]	at least 90%
Oc1ccc2ccccc2c1SSc1c(O)ccc2ccccc12 [IPA-3, 1,1′-Disulfanediyldinaphthalen-2-ol]	at least 90%
